Molecular target: Peroxisome proliferator-activated receptor delta (Homo sapiens)
Sequence (Q03181 whole entry, the tested form may be a part): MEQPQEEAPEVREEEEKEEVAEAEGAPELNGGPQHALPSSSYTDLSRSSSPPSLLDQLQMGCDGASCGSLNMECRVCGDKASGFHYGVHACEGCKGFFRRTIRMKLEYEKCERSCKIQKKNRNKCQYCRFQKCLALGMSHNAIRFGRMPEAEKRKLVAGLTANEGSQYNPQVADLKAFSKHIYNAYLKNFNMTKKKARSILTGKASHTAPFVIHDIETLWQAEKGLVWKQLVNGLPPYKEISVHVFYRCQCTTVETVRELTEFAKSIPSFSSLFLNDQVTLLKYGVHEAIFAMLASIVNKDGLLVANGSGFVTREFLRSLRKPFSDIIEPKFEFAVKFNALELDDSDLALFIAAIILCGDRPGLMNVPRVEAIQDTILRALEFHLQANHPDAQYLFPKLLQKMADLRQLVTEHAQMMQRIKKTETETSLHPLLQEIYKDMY
Experiment: Binding affinity at human GST-tagged PPARdelta ligand binding domain after 1 hr by time-resolved FRET analysis
Recorded measurements of EC50, one per entry

compound | assay target | EC50
CCCc1c(OCCCSc2ccc(CC(=O)O)cc2Cl)ccc2c(C(F)(F)F)noc12 | Peroxisome proliferator-activated receptor delta (Homo sapiens) | 7.9 nM
Cc1cc(SC(Cc2ccccc2)c2sc(-c3ccc(C(F)(F)F)cc3)nc2C)ccc1OCC(=O)O (configuration not stated) | Peroxisome proliferator-activated receptor delta (Homo sapiens) | 13 nM

----------
Test: Mean residence time in ICR mouse at 1 mg/kg, iv
Type: ADME, organism-based
Set-up: dose 1 mg/kg, route intravenous
Details: in vivo
quantity name: MRT (h)

molecule | quantity name | measured number
Cc1cc(SC(Cc2ccccc2)c2sc(-c3ccc(C(F)(F)F)cc3)nc2C)ccc1OCC(=O)O (stereo unspecified) | MRT | 5.98
